- Test system: T-47D breast
- assay_procedure: NCI tumour cell line growth inhibition, 48 h
assay_metric: TGI (µM)
Entry rule: numbers only, all in µM.

{"compound": "CC1(N)CCN(c2cccnc2NC(=O)c2nc(-c3ncccc3C(F)(F)F)cnc2N)CC1", "TGI, µM": 48.3}
{"compound": "Clc1cc2c(cc1Cl)CC(NCCN1CCCC1)CC2 (stereo unspecified)", "TGI, µM": 25.5}

Proceed to the following item.
Request: Tell me TGI reported for COc1cccc(-c2nn(-c3ccccc3)cc2-c2ccnc(NCCCNC(=O)Nc3ccc(Cl)c(Cl)c3)c2)c1
Result: 11.4

----------
// reported TGI for each item listed
- Test system: UACC-257 melanoma
- assay_procedure: NCI tumour cell line growth inhibition, 48 h

Known results for compounds:
{"compound": "COc1ccc(N=Cc2ccc(N(CCC#N)S(=O)(=O)c3ccccc3)cc2)cc1", "reading": "> 100 µM"}
{"compound": "O=C(C[n+]1ccc2ccccc2c1)c1ccc2ccc3ccccc3c2c1", "reading": "5.64 µM"}
{"compound": "CCCCCCCCC/C=C/C=C/C(=O)NCC(=O)NC1C(O)C(O)C(Nc2ncnc3nc[nH]c23)OC1C(O)CO (stereo not given)", "reading": "0.207 µM"}

Request: Tell me TGI reported for CCCCCCC(=O)O[C@H]1CC[C@H]2[C@@H]3CCC4C/C(=N/NC(=O)c5cccc6c(=O)c7ccccc7[nH]c56)C=C(C)[C@]4(C)[C@H]3CC[C@]12C (stereo not given in full)
Result: > 25 µM

Request: Tell me TGI reported for NCCCCc1cc(O)c2c(c1O)C(=O)c1ccccc1C2=O
Result: 33.4 µM

Request: Tell me TGI reported for CCCCc1ccc(Nc2nc(SC)c3[nH]cnc3n2)cc1
Result: > 100 µM

Request: Tell me TGI reported for Cc1ccccc1C(=O)N/N=C/c1ccc(Sc2nccn2C)c([N+](=O)[O-])c1
Result: > 100 µM

Request: Tell me TGI reported for O=C(Cn1c(=O)c(-c2ccccc2)nc2ccccc21)Nc1ccc(F)cc1
Result: > 100 µM

Request: Tell me TGI reported for Cn1c(O)c(C=Nc2ccccc2[N+](=O)[O-])c(=O)n(C)c1=O
Result: > 100 µM

Request: Tell me TGI reported for CCOC(=O)c1c2c(n(Cc3ccc(Cl)cc3Cl)c1C)-c1nc[nH]c1C(=O)C2=O
Result: 27.3 µM

Request: Tell me TGI reported for COc1cc(OC)nc(-n2c(N)c(C#N)c3ccc([N+](=O)[O-])cc3c2=O)n1
Result: > 100 µM

----------
- Test system: MALME-3M melanoma
- assay_procedure: NCI tumour cell line growth inhibition, 48 h
assay_metric: TGI

Known results for molecules:
{"molecule": "O=C1CSC(c2ccc([N+](=O)[O-])cc2)N1c1ccc(-n2c(-c3ccccc3)nc3ccccc3c2=O)cc1 (configuration not stated)", "TGI": "> 100 µM"}
{"molecule": "C=CCNC(=O)N(CCCC(NC(C)=O)C(=O)NCc1ccccc1)Cc1ccccc1 (configuration not stated)", "TGI": "> 100 µM"}
{"molecule": "Cc1ccc(N2C(=O)CS/C2=C(\\C#N)c2nc3ccccc3[nH]2)cc1", "TGI": "> 100 µM"}
{"molecule": "CC(C)C1=CC23CCC4C(C)(C(=O)O)CCCC4(C)C2CC1C1C(=O)N(c2ccccc2N2C(=O)C4C5CC6C7(C)CCCC(C)(C(=O)O)C7CCC6(C=C5C(C)C)C4C2=O)C(=O)C13 (configuration not stated)", "TGI": "28.3 µM"}
{"molecule": "Clc1ccc(N=Nc2nc3ccccc3nc2N=Nc2ccc(Cl)cc2Cl)c(Cl)c1", "TGI": "> 100 µM"}

Request: Tell me TGI reported for CN(C)C(=S)/N=c1\ssc(=S)n1Cc1ccccc1
Result: 30.7 µM

Request: Tell me TGI reported for COc1cc2c(cc1OCCCCN1C(=O)c3cccc4cccc(c34)C1=O)N=C[C@@H]1CCCN1C2=O
Result: 16.1 µM

Request: Tell me TGI reported for CC(=O)NNc1nc(C)c(C(=O)/C=C/c2ccccc2Cl)s1
Result: > 100 µM

Request: Tell me TGI reported for Cc1cc2c(cc1Cl)S(=O)(=O)OC(c1ccc([N+](=O)[O-])cc1)=N2
Result: > 100 µM
